# System: SR
# Assay comment: NCI tumour cell line growth inhibition, 48 h
Activity calls are given as the source filed them. Cut-off read from the data, not from the text of the source: active = GI50 up to about 1.1 µM and inactive = higher.
Pick from active, inactive when you respond.

Reference set (2 entries):
{"Compound": "C=C(C)CCC1CCCCC(CN(C)C)C1=O (configuration not stated)", "Group label": "inactive"}
{"Compound": "C(=N\\c1ccc(-c2nc3ccccc3s2)cc1)/c1ccco1", "Group label": "inactive"}

Task item: I'd appreciate the recorded outcome for C[C@H](c1ccccc1)N1C(=O)[C@@H](OCc2ccccc2)[C@H]1[C@H](COC(=O)COCc1ccccc1)OCc1ccccc1 from this test.
Reply: inactive

Task item: I'd appreciate the recorded outcome for CCN(CC)C(=S)SS(=O)(=O)c1ccc(F)cc1 from this test.
Reply: active

Task item: I'd appreciate the recorded outcome for COc1c(OC(C)=O)c(OC(C)=O)cc2c1-c1ccc(OC)c(=O)cc1C(NC(C)=O)CC2 (configuration not stated) from this test.
Reply: active

Task item: I'd appreciate the recorded outcome for O=C(NNc1ccnc2cc(Cl)ccc12)/C(=C\c1ccccc1Cl)NC(=O)c1ccccc1 from this test.
Reply: inactive

Task item: I'd appreciate the recorded outcome for CC(=O)OCC(OC(C)=O)C(OC(C)=O)C(OC(C)=O)C(=O)CNn1c(-c2ccc(C)cc2)nc2ccccc2c1=O (configuration not stated) from this test.
Reply: inactive

====

Exercise: for every item that follows, state its recorded GI50.
# Test system: NCI-H522
# Assay comment: NCI tumour cell line growth inhibition, 48 h
Calls of active or inactive are those of the source. No stated cut-off is given here; in the data, active = GI50 up to about 1.1 µM and inactive = higher. Residues, ends and D or L forms follow the SMILES beside them.

Below, each entry is followed by its recorded GI50 result.
{"Molecule": "COC12C(COC(=O)NCCO)C3=C(C(=O)C(C)=C(N)C3=O)N1CC1NC12 (stereo not given)", "Result": "14.5 µM (inactive)"}
{"Molecule": "O=c1c(-c2ccccc2)c(SCCCN2CCCCC2)n(-c2ccccc2)c(=S)n1-c1ccccc1", "Result": "22.4 µM (inactive)"}
{"Molecule": "CC(=O)NC(CO)C(=O)NC(Cc1ccc(O)cc1)C(=O)NCC(N)=O (stereo not drawn) (Ac-Ser-Tyr-Gly-NH2; configuration not given here)", "Result": "74.5 µM (inactive)"}
{"Molecule": "O=C1/C(=N/O)Cc2c(Br)ccc(Br)c21", "Result": "27.5 µM (inactive)"}
{"Molecule": "Cc1ccc([N+](=O)[O-])cc1S(=O)(=O)Nc1ccc(C2=NN(C(=O)c3ccccc3)C(c3ccccc3O)C2)cc1 (stereo not given)", "Result": "12.6 µM (inactive)"}

Here are 5 molecules. What values of GI50 were reported for them?
1. COc1ccc(C2COc3cc(O)c(O)cc3C2)cc1 (stereo not given)
2. Nc1nc(SCCC/C=C/B(O)O)nc2c1ncn2C1OC(COP(=O)(O)O)C(O)C1O (stereo not given)
3. O=c1[nH]c(=O)n(C2CC(O)C(CO)O2)cc1OS(=O)(=O)C(F)(F)F (stereo not given)
4. Cc1cc2occ(S(=O)(=O)NC(=O)Nc3ccc(Cl)cc3)c(=O)c2c(=O)o1
5. C[N+](C)(C)CC1CCC/C1=N/O (stereo not given)

Reply:
["4.84 µM (inactive)", "115 µM (inactive)", "> 100 µM (inactive)", "> 100 µM (inactive)", "> 100 µM (inactive)"]

Here are 5 molecules. What values of GI50 were reported for them?
1. CC(C)(C)[Si](C)(C)OCc1cccc(OCCOc2cccc(CO[Si](C)(C)C(C)(C)C)c2[N+](=O)[O-])c1[N+](=O)[O-]
2. Cc1nc2sccn2c1C(=O)NN
3. Cc1cc(C)nc(NS(=O)(=O)c2ccc(NC(=O)c3ccc4nc5ccccc5c(Nc5ccc(S(N)(=O)=O)cc5)c4c3)cc2)n1
4. O=CC(O)C(O)C(O)C1CNC(=S)O1 (stereo not given)
5. CN(C)CCNC(=O)Cn1cnc2cccc([N+](=O)[O-])c2c1=O

Reply:
1: > 100 µM (inactive); 2: > 100 µM (inactive); 3: 34.2 µM (inactive); 4: > 100 µM (inactive); 5: > 100 µM (inactive)

====

# Test system: COLO 205
# Assay comment: NCI tumour cell line growth inhibition, 48 h
The source made the active and inactive calls. No stated cut-off is given here; in the data, active = GI50 up to about 1.1 µM and inactive = higher.
Exercise: for every item that follows, state its recorded GI50.

Here are 5 molecules. What values of GI50 were reported for them?
1. Cc1cc(N(CCC#N)S(=O)(=O)c2ccccc2)ccc1/C=N\c1cccc(C(=O)O)c1
2. OC12CCC3(OC4CCCCO4)c4ccccc4C3C1c1ccccc12 (stereo not given)
3. CCc1cccc(C(C)C)c1NC(=O)C(=O)CC(=O)c1c(C)[n+]([O-])c2ccccc2[n+]1[O-]
4. O=C1/C(=N/c2ccccc2)Oc2cc(O)ccc21
5. COC(=O)CCC(=O)c1ccc2c(c1)CC1(Cc3ccccc3C1)C2

Reply:
> 100 µM (inactive)
55.1 µM (inactive)
> 100 µM (inactive)
> 100 µM (inactive)
29.4 µM (inactive)

====

Exercise: for every item that follows, state its recorded GI50.
# Test system: UO-31
# Assay comment: NCI tumour cell line growth inhibition, 48 h
The source made the active and inactive calls. Cut-off read from the data, not from the text of the source: active = GI50 up to about 1.1 µM and inactive = higher.

{"Smiles repr": "CCN(CC)C(=S)SS(=O)(=O)c1ccc(F)cc1", "GI50": "27.7 µM (inactive)"}

Here are 2 molecules. What values of GI50 were reported for them?
1. c1ccc(-c2cn3nc(N4CCOCC4)sc3n2)cc1
2. C[C@]1(O)O[C@@H]2OCC[C@@H]2C2=C1C(=O)c1ccccc1C2=O

Reply:
["> 100 µM (inactive)", "17.9 µM (inactive)"]

====

Exercise: for every item that follows, state its recorded GI50.
# Tested on: A549
# Assay comment: NCI tumour cell line growth inhibition, 48 h
Active and inactive are the calls of the source. Cut-off read from the data, not from the text of the source: active = GI50 up to about 1.1 µM and inactive = higher.

Below, each entry is followed by its recorded GI50 result.
{"Compound": "OCC1OC(n2ccc3cnccc32)CC1O (configuration not stated)", "GI50": "> 100 µM (inactive)"}
{"Compound": "CCCNCC(O)CNc1ccc(NCC(O)CNCCC)c2c1C(=O)c1ccccc1C2=O (configuration not stated)", "GI50": "1.81 µM (inactive)"}
{"Compound": "CC(C)(C)C1=C(Br)C(O)(C(C)(C)C)OP1(=O)c1ccccc1 (configuration not stated)", "GI50": "> 100 µM (inactive)"}
{"Compound": "CN(C)c1n/c(=N/c2ccc(/N=c3\\nc(N(C)C)ss3)cc2)ss1", "GI50": "37.9 µM (inactive)"}
{"Compound": "O=C(O)CSc1nnc(-c2ccccc2O)[nH]1", "GI50": "> 100 µM (inactive)"}

Here are 7 compounds. What values of GI50 were reported for them?
1. O=C(CC(=O)N1N=C(c2ccccc2)C(/N=N/c2ccc(S(=O)(=O)CCOS(=O)(=O)O)cc2)C1=O)Nc1ccc(Cl)cc1 (configuration not stated)
2. S=C1c2cc(Cl)ccc2N=C(NC2CCCC2)C2CSCN12 (configuration not stated)
3. CC1(C)CCc2c(ccc(C(=O)/C=C/c3ccc(O)cc3)c2O)O1
4. Cc1nn(-c2ccccc2)c2nc(N3CCOCC3)nnc12
5. O=C1NC(=O)C(=Cc2c3ccccc3cc3ccccc23)C(=O)N1
6. NC1CCCCC1.O=P(O)(O)C(CSc1ccccc1)P(=O)(O)O
7. N#CC1(C#N)C2C=CC(C3CCC=C32)C1(C#N)C#N (configuration not stated)

Reply:
> 100 µM (inactive)
> 84.9 µM (inactive)
11.9 µM (inactive)
94.4 µM (inactive)
> 100 µM (inactive)
> 100 µM (inactive)
> 10 µM (inactive)

====

# Tested on: 786-0
# Assay comment: NCI tumour cell line growth inhibition, 48 h
Active and inactive are the calls of the source. Cut-off read from the data, not from the text of the source: active = GI50 up to about 1.1 µM and inactive = higher.
Value kind: GI50

Below, each entry is followed by its recorded GI50 result.
{"Compound": "CCOC(=O)C(NCc1cccc(C(F)(F)F)c1)(NC(=O)c1ccccc1)C(F)(F)F (configuration not stated)", "Value kind": "GI50", "Result": "28.5 µM (inactive)"}
{"Compound": "O=c1[nH]nc(-c2ccccc2)n1/N=C/c1ccc([N+](=O)[O-])o1", "Value kind": "GI50", "Result": "4.88 µM (inactive)"}
{"Compound": "C=CCc1cc(-c2cc(CC=C)c(O)c(CN(CCCl)CCCl)c2)cc(CN(CCCl)CCCl)c1O", "Value kind": "GI50", "Result": "7.94 µM (inactive)"}
{"Compound": "C/C(=N/O)c1ccc2c(c1)/C(=N/O)c1cc(/C(C)=N/O)ccc1-2", "Value kind": "GI50", "Result": "17.2 µM (inactive)"}

Here are 3 compounds. What values of GI50 were reported for them?
1. CCOC(=O)C1=C(C)Nc2ccccc2S1
2. O=C1CC2CCN(C(=O)c3ccccc3)CC2CCN1.O=C1CCC2CC(C(=O)c3ccccc3)CCC2CN1 (configuration not stated)
3. CN(C)c1ccc(C2SCC(=O)N2NS(=O)(=O)c2cccc(C(=O)O)c2)cc1 (configuration not stated)

Reply:
["> 100 µM (inactive)", "> 100 µM (inactive)", "17.2 µM (inactive)"]
